assay_text: Cytotoxicity in HCV-1b replicon cells (cell growth fluorescent titration)
Format: cell-based
particulars: HCV genotype 1b stably transfected replicon cells, HCV GT1b replicon cells
value_kind: CC50 at 3 days

Solved cases (4 shown):
# molecule, value_kind, value_observed
rows = [
    ("COc1ccccc1COP(=O)(N[C@@H](C)C(=O)OC(C)C)OC[C@H]1O[C@@H](n2ccc(=O)[nH]c2=O)[C@](C)(F)[C@@H]1O (stereo partly drawn)", "CC50 at 3 days", "> 20 µM"),
    ("CC(C)OC(=O)[C@H](C)N[P@](=O)(OC[C@H]1O[C@@H](n2ccc(=O)[nH]c2=O)[C@](C)(F)[C@@H]1O)Oc1ccccc1 [Patent compound 06a in 2010]", "CC50 at 3 days", "> 3 µM"),
    ("CC(C)OC(=O)[C@H](C)NP(=O)(OC[C@H]1O[C@@H](n2ccc(=O)[nH]c2=O)[C@](C)(F)[C@@H]1O)Oc1ccccc1 (stereo partly drawn)", "CC50 at 3 days", "> 20 µM"),
    ("COc1ccc(COP(=O)(N[C@@H](C)C(=O)OC(C)C)OC[C@H]2O[C@@H](n3ccc(=O)[nH]c3=O)[C@](C)(F)[C@@H]2O)cc1 (stereo partly drawn)", "CC50 at 3 days", "> 20 µM"),
]

Give CC50 at 3 days for each listed item.
1. Cc1ccccc1COP(=O)(N[C@@H](C)C(=O)OC(C)C)OC[C@H]1O[C@@H](n2ccc(=O)[nH]c2=O)[C@](C)(F)[C@@H]1O (single isomer, unassigned) [Unresolved enantiomer 02 of patent compounds in 2013]
2. Cc1ccc(COP(=O)(N[C@@H](C)C(=O)OC(C)C)OC[C@H]2O[C@@H](n3ccc(=O)[nH]c3=O)[C@](C)(F)[C@@H]2O)cc1 (stereo partly drawn)

["> 20 µM", "> 20 µM"]
